# Test: Inhibition of ABCB1 in human HeLa S3 cells assessed as potentiation of vincristine-induced cytotoxicity by measuring vincristine IC50 at 5 uM measured after 72 hrs by SRB assay (Rvb = 4.55 +/- 0.28 nM)
Measurement kind: IC50 (nM)
Could you give me the number in nM? Just the number is fine.

{"Smiles str": "COc1ccc(-c2cc(OC(C)=O)c3c(-c4cccs4)c(N(C(C)=O)C(C)=O)oc3c2)cc1", "Recorded measurement": 5.2}
{"Smiles str": "COc1ccc(-c2cc(OC(C)=O)c3c(-c4cccs4)c(NC(=O)c4cccc(F)c4)oc3c2)cc1", "Recorded measurement": 4.7}
{"Smiles str": "COc1ccc(-c2cc(OC(C)=O)c3c(-c4cccs4)c(NC(=O)c4ccccc4C)oc3c2)cc1", "Recorded measurement": 3.7}

Note: attention shifts to another entry.
// COc1ccc(-c2cc(OC(C)=O)c3c(-c4cccs4)c(NC(=O)c4ccccc4Cl)oc3c2)cc1 : IC50 value = 2.2

----------
Each entry below carries its recorded IC50.
# Test: Inhibition of human full-length ABCB1 expressed in FLp-In-293 cells assessed as potentiation of paclitaxel-induced cytotoxicity by measuring paclitaxel IC50 at 5 uM measured after 72 hrs by SRB assay (Rvb = 797 +/- 73 nM)
Just the number please, in nM, no unit attached.

Answered cases to consult:
{"Smiles str": "COc1ccc(-c2cc(OC(C)=O)c3c(-c4cccs4)c(NC(=O)c4ccccc4C)oc3c2)cc1", "Unit of measurement": "nM", "Recorded measurement": 55}
{"Smiles str": "COc1ccc(-c2cc(OC(C)=O)c3c(-c4cccs4)c(NC(=O)c4cccc(F)c4)oc3c2)cc1", "Unit of measurement": "nM", "Recorded measurement": 77}
{"Smiles str": "COc1ccc(-c2cc(OC(C)=O)c3c(-c4cccs4)c(N(C(C)=O)C(C)=O)oc3c2)cc1", "Unit of measurement": "nM", "Recorded measurement": 645}

Proceed to the following item.
Reported IC50 for COc1ccc(-c2cc(OC(C)=O)c3c(-c4cccs4)c(NC(=O)c4ccccc4Cl)oc3c2)cc1 was 91

----------
Entries and their IC50
# Test: Inhibition of ABCB1 in human KB-VIN cells assessed as potentiation of doxorubicin-induced cytotoxicity by measuring doxorubicin IC50 at 5 uM measured after 72 hrs by SRB assay (Rvb = 4736 +/- 59 nM)

Before answering, review these 3 worked examples.
{"Smiles str": "COc1ccc(-c2cc(OC(C)=O)c3c(-c4cccs4)c(NC(=O)c4ccccc4Cl)oc3c2)cc1", "IC50": "102 nM"}
{"Smiles str": "COc1ccc(-c2cc(OC(C)=O)c3c(-c4cccs4)c(N(C(C)=O)C(C)=O)oc3c2)cc1", "IC50": "1500 nM"}
{"Smiles str": "COc1ccc(-c2cc(OC(C)=O)c3c(-c4cccs4)c(NC(=O)c4cccc(F)c4)oc3c2)cc1", "IC50": "1400 nM"}

// sample COc1ccc(-c2cc(OC(C)=O)c3c(-c4cccs4)c(NC(=O)c4ccccc4C)oc3c2)cc1 , its IC50 was 397 nM

----------
# Test: Inhibition of ABCB1 in FLp-In-293 cells assessed as potentiation of vincristine-induced cytotoxicity by measuring vincristine IC50 at 5 uM measured after 72 hrs by SRB assay (Rvb = 6 +/- 0.2 nM)
Measurement kind: IC50 (nM)
Report as a plain number; the unit nM is understood.

{"Smiles str": "COc1ccc(-c2cc(OC(C)=O)c3c(-c4cccs4)c(NC(=O)c4ccccc4Cl)oc3c2)cc1", "Recorded measurement": 0.82}
{"Smiles str": "COc1ccc(-c2cc(OC(C)=O)c3c(-c4cccs4)c(N(C(C)=O)C(C)=O)oc3c2)cc1", "Recorded measurement": 4}
{"Smiles str": "COc1ccc(-c2cc(OC(C)=O)c3c(-c4cccs4)c(NC(=O)c4cccc(F)c4)oc3c2)cc1", "Recorded measurement": 3.7}

Entry COc1ccc(-c2cc(OC(C)=O)c3c(-c4cccs4)c(NC(=O)c4ccccc4C)oc3c2)cc1 — recorded IC50 = 0.83

----------
# Test: Inhibition of human full-length ABCB1 expressed in FLp-In-293 cells assessed as potentiation of doxorubicin-induced cytotoxicity by measuring doxorubicin IC50 at 2.5 uM measured after 72 hrs by SRB assay (Rvb = 2264 +/- 196 nM)
Quick reference: pIC50 of the listed items.
Field pIC50 (float): negative decimal logarithm of the concentration in molar.

{"Smiles str": "COc1ccc(-c2cc(OC(C)=O)c3c(-c4cccs4)c(NC(=O)c4ccccc4C)oc3c2)cc1", "pIC50": 6.28}
{"Smiles str": "COc1ccc(-c2cc(OC(C)=O)c3c(-c4cccs4)c(NC(=O)c4cccc(F)c4)oc3c2)cc1", "pIC50": 6.25}
{"Smiles str": "COc1ccc(-c2cc(OC(C)=O)c3c(-c4cccs4)c(N(C(C)=O)C(C)=O)oc3c2)cc1", "pIC50": 6.06}

Reported pIC50 of COc1ccc(-c2cc(OC(C)=O)c3c(-c4cccs4)c(NC(=O)c4ccccc4Cl)oc3c2)cc1 : 6.25

----------
IC50: recorded values
# Test: Inhibition of ABCB1 in human HeLa S3 cells assessed as potentiation of doxorubicin-induced cytotoxicity by measuring doxorubicin IC50 at 2.5 uM measured after 72 hrs by SRB assay (Rvb = 242 +/- 5 nM)

{"Smiles str": "COc1ccc(-c2cc(OC(C)=O)c3c(-c4cccs4)c(NC(=O)c4ccccc4Cl)oc3c2)cc1", "IC50": "111 nM"}
{"Smiles str": "COc1ccc(-c2cc(OC(C)=O)c3c(-c4cccs4)c(NC(=O)c4ccccc4C)oc3c2)cc1", "IC50": "116 nM"}
{"Smiles str": "COc1ccc(-c2cc(OC(C)=O)c3c(-c4cccs4)c(NC(=O)c4cccc(F)c4)oc3c2)cc1", "IC50": "93 nM"}

Okay, now this molecule:
Record summary for COc1ccc(-c2cc(OC(C)=O)c3c(-c4cccs4)c(N(C(C)=O)C(C)=O)oc3c2)cc1 : reported IC50 = 105 nM

----------
IC50 reference
# Test: Inhibition of ABCB1 in FLp-In-293 cells assessed as potentiation of paclitaxel-induced cytotoxicity by measuring paclitaxel IC50 at 2.5 uM measured after 72 hrs by SRB assay (Rvb = 11.8 +/- 1.13 nM)
Reply numerically in nM, unit not repeated.

{"Smiles str": "COc1ccc(-c2cc(OC(C)=O)c3c(-c4cccs4)c(NC(=O)c4ccccc4Cl)oc3c2)cc1", "Unit of measurement": "nM", "Recorded measurement": 6.4}
{"Smiles str": "COc1ccc(-c2cc(OC(C)=O)c3c(-c4cccs4)c(NC(=O)c4cccc(F)c4)oc3c2)cc1", "Unit of measurement": "nM", "Recorded measurement": 6.6}
{"Smiles str": "COc1ccc(-c2cc(OC(C)=O)c3c(-c4cccs4)c(N(C(C)=O)C(C)=O)oc3c2)cc1", "Unit of measurement": "nM", "Recorded measurement": 11}

Next:
// IC50 value for COc1ccc(-c2cc(OC(C)=O)c3c(-c4cccs4)c(NC(=O)c4ccccc4C)oc3c2)cc1 : 9.1

----------
# Test: Inhibition of ABCB1 in human HeLa S3 cells assessed as potentiation of paclitaxel-induced cytotoxicity by measuring paclitaxel IC50 at 2.5 uM measured after 72 hrs by SRB assay (Rvb = 26.50 +/- 4.1 nM)
Measurement kind: pIC50
Friendly reminder that pIC50 comes from taking -log10 of the concentration in mol/L.

Some compounds with known pIC50 results, for comparison:
{"Smiles str": "COc1ccc(-c2cc(OC(C)=O)c3c(-c4cccs4)c(N(C(C)=O)C(C)=O)oc3c2)cc1", "pIC50": 7.85}
{"Smiles str": "COc1ccc(-c2cc(OC(C)=O)c3c(-c4cccs4)c(NC(=O)c4ccccc4Cl)oc3c2)cc1", "pIC50": 8.02}
{"Smiles str": "COc1ccc(-c2cc(OC(C)=O)c3c(-c4cccs4)c(NC(=O)c4cccc(F)c4)oc3c2)cc1", "pIC50": 7.92}

Okay, next one:
Record COc1ccc(-c2cc(OC(C)=O)c3c(-c4cccs4)c(NC(=O)c4ccccc4C)oc3c2)cc1 , field pIC50: 7.96

----------
Overview of recorded IC50 for various compounds
# Test: Inhibition of human full-length ABCB1 expressed in FLp-In-293 cells assessed as potentiation of vincristine-induced cytotoxicity by measuring vincristine IC50 at 2.5 uM measured after 72 hrs by SRB assay (Rvb = 823 +/- 16 nM)
Express the result in nM but write the number alone.

Illustrative cases are given below, each with its answer.
{"Smiles str": "COc1ccc(-c2cc(OC(C)=O)c3c(-c4cccs4)c(NC(=O)c4ccccc4C)oc3c2)cc1", "Unit of measurement": "nM", "IC50": 84}
{"Smiles str": "COc1ccc(-c2cc(OC(C)=O)c3c(-c4cccs4)c(NC(=O)c4ccccc4Cl)oc3c2)cc1", "Unit of measurement": "nM", "IC50": 114}
{"Smiles str": "COc1ccc(-c2cc(OC(C)=O)c3c(-c4cccs4)c(NC(=O)c4cccc(F)c4)oc3c2)cc1", "Unit of measurement": "nM", "IC50": 96}

With those in mind, consider the next compound.
IC50 reading for COc1ccc(-c2cc(OC(C)=O)c3c(-c4cccs4)c(N(C(C)=O)C(C)=O)oc3c2)cc1 : 663

These measurements were taken from BindingDB's records for doi:10.1016/j.ejmech.2020.112422.
